procedure_text: tissue drug levels of free and liposomal vincristine (radioimmunoassay)
Type: in vivo, CD2 F1 mice
experimental_conditions: mouse, lung, iv, 1 mg/kg, lung; 1.0 mg; 5'; read-out: vincristine level, lung
parameter_measured: concentration at 5 min
Kindly write the number and append the unit.

Data request: Would you mind telling me what concentration at 5 min value was observed for CC[C@]1(O)C[C@H]2CN(CCc3c([nH]c4ccccc34)[C@@](C(=O)OC)(c3cc4c(cc3OC)N(C=O)[C@H]3[C@@](O)(C(=O)OC)[C@H](OC(C)=O)[C@]5(CC)C=CCN6CC[C@]43[C@@H]65)C2)C1 [free vincristine, vincristine] ?
Data returned: 80 ng/g

----------
procedure_text: tissue drug levels of free and liposomal vincristine (radioimmunoassay)
Format: in vivo, CD2 F1 mice
experimental_conditions: mouse, spleen, iv, 1 mg/kg, spleen; 1.0 mg; 1h; read-out: vincristine level, spleen
parameter_measured: concentration at 1 h (ng/g)
Report as a plain number; the unit ng/g is understood.

Data request: Could you share which concentration at 1 h value was measured for CC[C@]1(O)C[C@H]2CN(CCc3c([nH]c4ccccc34)[C@@](C(=O)OC)(c3cc4c(cc3OC)N(C=O)[C@H]3[C@@](O)(C(=O)OC)[C@H](OC(C)=O)[C@]5(CC)C=CCN6CC[C@]43[C@@H]65)C2)C1 [free vincristine, vincristine] ?
Data returned: 86

----------
procedure_text: plasma pharmacokinetics of free and liposomal vincristine (radioimmunoassay)
Assay type: in vivo, CD2 F1 mice
experimental_conditions: mouse, iv, 1 mg/kg; plasma; 1.0 mg; 1h; read-out: plasma level
parameter_measured: concentration at 1 h
Could you give the number and then its unit, please?

Data request: What concentration at 1 h value was documented for this compound, CC[C@]1(O)C[C@H]2CN(CCc3c([nH]c4ccccc34)[C@@](C(=O)OC)(c3cc4c(cc3OC)N(C=O)[C@H]3[C@@](O)(C(=O)OC)[C@H](OC(C)=O)[C@]5(CC)C=CCN6CC[C@]43[C@@H]65)C2)C1 [free vincristine, vincristine] ?
Data returned: 100 ng/mL

----------
procedure_text: tissue drug levels of free and liposomal vincristine (radioimmunoassay)
Format: in vivo, CD2 F1 mice
experimental_conditions: mouse, kidney, iv, 1 mg/kg, kidney; 1.0 mg; 8h; read-out: vincristine level, kidney
parameter_measured: concentration at 8 h
The reply should read as a number followed by its unit.

Data request: Entry CC[C@]1(O)C[C@H]2CN(CCc3c([nH]c4ccccc34)[C@@](C(=O)OC)(c3cc4c(cc3OC)N(C=O)[C@H]3[C@@](O)(C(=O)OC)[C@H](OC(C)=O)[C@]5(CC)C=CCN6CC[C@]43[C@@H]65)C2)C1 [free vincristine, vincristine] : reported concentration at 8 h = ?
Data returned: 18 ng/g

----------
procedure_text: tissue drug levels of free and liposomal vincristine (radioimmunoassay)
Assay type: in vivo, CD2 F1 mice
experimental_conditions: mouse, brain, iv, 1 mg/kg, brain; 1.0 mg; 15'; read-out: vincristine level, brain
parameter_measured: concentration at 0.25 h (ng/g)
Enter your answer as a number in ng/g; do not include the unit.

Data request: Give the measured concentration at 0.25 h of CC[C@]1(O)C[C@H]2CN(CCc3c([nH]c4ccccc34)[C@@](C(=O)OC)(c3cc4c(cc3OC)N(C=O)[C@H]3[C@@](O)(C(=O)OC)[C@H](OC(C)=O)[C@]5(CC)C=CCN6CC[C@]43[C@@H]65)C2)C1 [free vincristine, vincristine] .
Data returned: 21

Data origin, for the record: patent US4952408A
